experiment: PET hydrolysis, aromatic products released after 48 h (umol product/mg enzyme); higher = more PET depolymerization activity; settings: substrate: cryPow; 40 °C; pH 8.5
measurementType: PET hydrolysis

Study these solved cases before continuing.
1. DDGYQRGPDPTEESIEAPRGTFEIGMAVVTRASADGFGGGTVYYPTDTSEGTFGAVAVSPGYSSSQAAIAWLGPRLASQGFVVFTIDTLSTSDSPTRRGDQVLAALSFLGRTELADRIDPDRLAVMGHSMGGGGSLEAAKDYPALQAIVPMTPWSVDKTFPEVTAPTLVIGAEDDVVARPRSHAEPIYESLPADGDKAYLELRDASHSAPSAPNTLIARYSLSWLKRYVDDDERYQQFLCPPPAVDDEISEYRSTCA [DP089]    20
2. VPVVPAQQENPYQRGPDPTPESVEAPRGSFAIEKATIARGSVQGFGGGTIYYPTDTAEGTFGAVAISPGFTESQSAISWYGERLATQGFVVFTIDTNGGLDQPDSRADQLLAALDFLTGSSEVKDRIDASRLGVLGHSMGGGGSLSAAKKRPALQAAVPLAPWHTNSNWSDVTVPTLIVGAENDAVAPVGMHAEPFYAGLTKAPEKAYLELKGADHFVTNSPNTVIAKSTLSWLKRFIDDDTRYDQFLCPPPKPDNDISEYRDTCPN [DP051]    < 3

Now for another entry.
Short answer for EEPASGYQRGPAPTTSSIESSRGPFSTSQVSISGLSANGFGGADVYYPTDTSQGTFGAVAISPGYTARKSSMAWLASRLASQGFVVINIDTNTTSDQPASRGRQLLAALDQVTKDSRVANRIDPTRLAVVGHSMGGGGALEASRSRPSLQAAIPLTPWNTTKSFSGNQVPTLVVGAERDTVASVRSHAEPFYRSLPSAPGKAYLELAGASHFAPNTSNTTIAKHSIAWLKLFVDNDERYRQFVCPGPTSDRAVSDYQNTCSSFTP [DP053] : PET hydrolysis was < 3

----------
Below is a list of entries, each paired with its recorded PET hydrolysis value.
experiment: PET hydrolysis, aromatic products released after 48 h (umol product/mg enzyme); higher = more PET depolymerization activity; conditions: substrate: cryPow; 60 °C; pH 6.5

For orientation, consider the following solved cases.
1) GETAQTTDVSAQSQFQRGPNPTVSSIEARTGHYRTSTTRVSSFASGFGGGTIYYPTTTSDGTFGGVAVAPGYTASSSTMDWLGPRIASQGFVVFVIDTNTRLDQPSSRGRQLLAALDYLTERSSERHRVDSNRLAVMGHSMGGGGALEATISRPSLKASIPLTPWNLTKNWSRVTTPTLIVGAENDSVASVRSHSIPFYTSLSSSTDRMYVELDGASHFAPNVSNTTIAKYSISWLKRFVDDDTRYDQFLCPLPNERAISDIRGNCPR [DP090]    < 3
2) ATNPYQRGPAPTAESISAERGSFAVADSAVSADSVSGFGGGTVYYPTDTSAGKFGAVAIAPGFTANEWSLAWLGPRLASHGFVVFIIDTITTGDQPAQRGDELRAALSYLTTSSPVRDRVDPARLGVMGHSMGGGGALQAAEDDPSIRAVIPMTPYDLDSPSPKVTAPTLIIGAQDDTIAPVAYHARPFYESLTSARAKEYIELRNQSHFAPNYPNATIASASIAWLKRYIDDDQRYQPFACPAQVGSWLISDFRSAC [DP034]    < 3

Consider now this further sequence.
get_value(item= ANPYERGPAPTKASIEATTGYFATAKVTVAKSSVSGFGGGTIYYPTSTTSGTFGAIALVPGFTNVQSAVAWLGPRVASQGFVVFIIDTNSVYDSPDSRGTQLLAALDYLTNTSTVKSRVDATRLGVMGYSMGGGGALSATKTRTSIKASVPMAPYHSTKTWTTVKTPTLIVTGQSDTTAPPASHGLAFYNSLSTSIDKAYMELKGAGHSAPTSANTTIAKYSISWFKRFIDDDTRYDQFLCPNPTDTTISSYKSTCNYS [DP082] , readout=PET hydrolysis) returns 13
